Attribute: Tmax
test: Pharmacokinetic study in rats; assay type: in vivo, SD rats; settings: male, SD, plasma; rat, PO, 2 mg/kg
Record the value in min, omitting the unit from your answer.

Solved cases (2 shown):
Smiles data | Uom | Tmax
O=C1CCCN1c1cnc(NCc2c(F)ccc3c2CCO3)n2cnnc12 | min | 49.8
CN(C(=O)C1CC1)c1cnc(NCc2c(F)ccc3c2CCO3)n2cnnc12 | min | 170

For the next question, use this compound.
Prompt: Field request: Tmax | item: "O=C(Nc1cnc(NCc2c(F)ccc3c2CCO3)n2cnnc12)C1CC1"
Response: 25.2

###

assay: Pharmacokinetic study in rats; format: in vivo, SD rats; conditions: male, SD, plasma; rat, PO, 2 mg/kg
Measured endpoint: AUC(0-inf)
Remember to put the unit after the number in your answer.

Solved cases (2 shown):
Smiles data | Result
CCN(C(=O)C1CC1)c1cnc(NCc2c(F)ccc3c2CCO3)n2cnnc12 | 706 ng·h/mL
CC1(COc2cnc(NCc3c(F)ccc4c3CCO4)n3cnnc23)COC1 | 1790 ng·h/mL

Prompt: Field request: AUC(0-inf) | item: "CN(C(=O)C1CC1)c1cnc(NCc2c(F)ccc3c2CCO3)n2cnnc12"
Response: 628 ng·h/mL

Data provenance is patent US12552796B2.
